Target: T1, human VISTA on the surface of cells (human, UniProt Q9H7M9 33-295)
T1 sequence: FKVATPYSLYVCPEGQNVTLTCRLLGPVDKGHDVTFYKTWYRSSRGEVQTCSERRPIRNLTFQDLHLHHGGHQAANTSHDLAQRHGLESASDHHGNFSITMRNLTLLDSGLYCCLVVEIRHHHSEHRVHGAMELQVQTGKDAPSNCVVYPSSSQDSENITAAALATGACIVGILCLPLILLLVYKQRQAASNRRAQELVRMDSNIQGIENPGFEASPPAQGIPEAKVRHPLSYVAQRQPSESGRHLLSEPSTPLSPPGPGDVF
Experiment: cell-based or functional assay
property-name: IC50, Gamma (IFN-g), SEB assay

These recorded examples may help you get a feel for the data.
# input Reported IC50, Gamma (IFN-g), SEB assay, binder VSTB50 (antibody, human IgG1, V domains shown) VH: QVQLVQSGSELKKPGASVKVSCKASGYTFTNYGLNWVRQAPGQGLEWMGWINPYTGEPTYADDFKGRFVFSLDTSVSTAYLQICSLKAEDTAVYYCAREGYGNYIFPYWGQGTLVTVSS VL: DIVMTQTPLSLSVTPGQPASISCRASESVDTYANSLMHWYLQKPGQPPQLLIYRASNLESGVPDRFSGSGSGTDFTLKISRVEAEDVGVYYCQQTNEDPRTFGQGTKLEIK : ____
# output 1.69 log10 of antibody concentration

# input Reported IC50, Gamma (IFN-g), SEB assay, binder VSTB95 (antibody, human IgG1, V domains shown) VH: EVQLVESGGGLVQPGGSLRLSCAASGFTFRNYGMSWVRQAPGKGLEWVASIISGGSYTYYPDSVKGRFTISRDNAKNSLYLQMNSLRAEDTAVYYCARIYDHDGDYYAMDYWGQGTTVTVSS VL: DIVMTQSPLSLPVTPGEPASISCRSSQSIVHSNGNTYLEWYLQKPGQSPQLLIYKVSNRFSGVPDRFSGSGSGTDFTLKISRVEAEDVGVYYCFQGSHVPWTFGQGTKLEIK : ____
# output 0.05 log10 of antibody concentration

# input Reported IC50, Gamma (IFN-g), SEB assay, binder VSTB116 (antibody, V domains shown) VH: QVQLVQSGAEVKKPGSSVKVSCKASGGTFSSYAISWVRQAPGQGLEWMGGIIPIFGTANYAQKFQGRVTITADESTSTAYMELSSLRSEDTAVYYCARSSYGWSYEFDYWGQGTLVTVSS VL: DIQMTQSPSSLSASVGDRVTITCRASQSINTNLNWYQQKPGKAPKLLIYAASSLQSGVPSRFSGSGSGTDFTLTISSLQPEDFATYYCQQARDTPITFGQGTKVEIKR : ____
# output -0.35 log10 of antibody concentration

Below: the item to evaluate.
# input Reported IC50, Gamma (IFN-g), SEB assay, binder VSTB53 (antibody, human IgG1, V domains shown) VH: QVQLVQSGAEVKKPGASVKVSCKASGYTFTHYTIHWVRQAPGQGLEWMGYIIPSSGYSEYNQKFKDRVTMTRDTSTSTVYMELSSLRSEDTAVYYCARGAYDDYYDYYAMDYWGQGTLVTVSS VL: DIVMTQSPLSLPVTPGEPASISCRSSQTIVHSNGNTYLEWYLQKPGQSPQLLIYKVSNRFSGVPDRFSGSGSGTDFTLKISRVEAEDVGVYYCFQASHVPWTFGQGTKLEIK : ____
# output -1.05 log10 of antibody concentration
